# assay comment: Pharmacokinetics after IV and oral dose, rats
# Assay type: in vivo, Sprague Dawley rats
# details: Sprague Dawley, plasma; rat, female, single oral dose 15 mg base/kg
assay readout: Cmax (ng/mL)
The reply should contain only the number, in ng/mL.

IN: Give the measured Cmax of COc1ccc(-c2c(-c3ccc(C#N)c(F)c3)nc(N3CCC(N)CC3)n(C)c2=O)cc1F .
OUT: 123

###

# assay comment: Pharmacokinetics after IV and oral dose, mice
# Type: in vivo, CD-1 mice
# details: CD-1, plasma; mouse, female, single oral dose 10 mg base/kg; read-out: % F
assay readout: bioavailability
Include the unit after the number when you answer.

IN: Give the measured bioavailability of COc1ccc(-c2c(-c3ccc(C#N)c(F)c3)nc(N3CCC(N)CC3)n(C)c2=O)cc1F .
OUT: 38%

###

# assay comment: Pharmacokinetics after IV and oral dose, rats
# Assay type: in vivo, Sprague Dawley rats
# details: Sprague Dawley, plasma; rat, female, single oral dose 5 mg base/kg; read-out: t1/2, z (converted)
assay readout: half-life (h)
The reply should contain only the number, in h.

IN: Give the measured half-life of COc1ccc(-c2c(-c3ccc(C#N)c(F)c3)nc(N3CCC(N)CC3)n(C)c2=O)cc1F [Compound A] .
OUT: 3

###

# tested system: human LSD-1 (Homo sapiens (Human), UniProt O60341)
# assay comment: In vitro enzyme inhibition assay LSD-1 (TR-FRET)
# Type: biochemical
# details: TR-FRET, H3K4me1-biotin labeled peptide
assay readout: IC50

Below: 3 molecules and their reported IC50.
>>> assay_value("CCc1ccc(-c2c(-c3ccc(C#N)cc3)nc(N3CCC(N)CC3)n(C)c2=O)cn1 [Example 10]")
"< 0.1 µM"
>>> assay_value("COCCOc1ccc(-c2c(-c3ccc(C#N)c(F)c3)nc(N3CCC(N)CC3)n(C)c2=O)cc1 [Example 98]")
"< 0.1 µM"
>>> assay_value("COc1ccc(-c2c(-c3ccc(C#N)c(F)c3)nc(N3CC[C@@H](N)C3)n(C)c2=O)cc1F [Example 27]")
"< 0.1 µM"

IN: Give the measured IC50 of CN(C)c1ncc(-c2c(-c3ccc(C#N)c(F)c3)nc(N3CCC(N)CC3)n(C)c2=O)cn1 [Example 49] .
OUT: < 0.1 µM

###

# assay comment: in vivo
# details: female, Crl:CD1(ICR), mouse, plasma, po, 15 mg/kg
assay readout: AUC(0-t) (ng·h/mL)
The reply should contain only the number, in ng·h/mL.

IN: Give the measured AUC(0-t) of COc1ccc(-c2c(-c3ccc(C#N)c(F)c3)nc(N3CCC(N)CC3)n(C)c2=O)cc1F .
OUT: 9680

###

# assay comment: in vivo
# details: both, Beagle, dog, po, 0.5 mg/kg, combined Day 15 mean Cmax
assay readout: Cmax (ng/mL)
The reply should contain only the number, in ng/mL.

IN: Give the measured Cmax of COc1ccc(-c2c(-c3ccc(C#N)c(F)c3)nc(N3CCC(N)CC3)n(C)c2=O)cc1F [Compound A] .
OUT: 22

###

# assay comment: Pharmacokinetics after IV and oral dose, mice
# Type: in vivo, CD-1 mice
# details: CD-1, plasma; mouse, female, single oral dose 10 mg base/kg
assay readout: AUC(0-t) (ng·h/mL)
The reply should contain only the number, in ng·h/mL.

IN: Give the measured AUC(0-t) of COc1ccc(-c2c(-c3ccc(C#N)c(F)c3)nc(N3CCC(N)CC3)n(C)c2=O)cc1F .
OUT: 2010
